- target.of.assay: EGFR L858R-T790M (Homo sapiens, UniProt P00533, L858R/T790M)
- Construct: NCI-H1975 (harboring EGFR heterozygous L858R-T790M mutations); host or cells: NCI-H1975
- Sequence (P00533 25-1210 T790M/L858R): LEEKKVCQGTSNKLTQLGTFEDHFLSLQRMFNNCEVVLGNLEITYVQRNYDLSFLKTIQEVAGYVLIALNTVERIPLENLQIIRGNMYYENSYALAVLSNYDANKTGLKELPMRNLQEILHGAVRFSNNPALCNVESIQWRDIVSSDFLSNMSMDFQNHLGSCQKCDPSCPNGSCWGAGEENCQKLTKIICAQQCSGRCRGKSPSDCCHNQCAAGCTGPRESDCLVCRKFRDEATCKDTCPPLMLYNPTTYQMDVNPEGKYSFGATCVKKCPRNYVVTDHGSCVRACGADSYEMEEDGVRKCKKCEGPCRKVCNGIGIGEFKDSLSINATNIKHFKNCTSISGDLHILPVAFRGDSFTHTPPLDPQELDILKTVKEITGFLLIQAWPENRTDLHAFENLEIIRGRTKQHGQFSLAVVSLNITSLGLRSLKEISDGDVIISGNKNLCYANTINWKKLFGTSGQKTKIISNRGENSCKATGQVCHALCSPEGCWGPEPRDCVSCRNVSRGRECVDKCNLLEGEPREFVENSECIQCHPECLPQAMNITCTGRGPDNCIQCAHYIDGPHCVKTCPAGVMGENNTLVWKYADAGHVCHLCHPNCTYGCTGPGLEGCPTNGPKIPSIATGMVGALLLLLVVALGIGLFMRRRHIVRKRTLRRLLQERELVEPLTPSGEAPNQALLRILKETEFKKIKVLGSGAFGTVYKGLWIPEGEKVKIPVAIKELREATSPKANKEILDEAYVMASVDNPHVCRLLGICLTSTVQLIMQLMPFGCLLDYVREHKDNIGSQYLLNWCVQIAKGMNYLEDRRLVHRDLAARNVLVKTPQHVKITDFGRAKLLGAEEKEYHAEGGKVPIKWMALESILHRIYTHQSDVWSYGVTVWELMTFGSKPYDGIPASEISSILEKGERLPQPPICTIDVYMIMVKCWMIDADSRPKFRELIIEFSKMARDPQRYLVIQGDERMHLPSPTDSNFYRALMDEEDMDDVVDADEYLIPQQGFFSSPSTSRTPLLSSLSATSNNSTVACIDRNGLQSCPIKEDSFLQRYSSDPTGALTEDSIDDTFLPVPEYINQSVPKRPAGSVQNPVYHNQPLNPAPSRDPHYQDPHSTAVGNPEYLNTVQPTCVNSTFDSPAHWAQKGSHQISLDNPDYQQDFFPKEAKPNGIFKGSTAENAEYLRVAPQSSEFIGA
- assay: EGFR degradation, Total EGFR (L858R-specific) HTRF, NCI-H1975
- Format: cell-based
- condition.context: Table 9B; NCI-H1975 cells, 6 hours, Total EGFR HTRF; read-out: H1975 EGFR DC50
We begin with a simple list: items and their reported DC50.

Example entries and their recorded answers appear below.
compound="N#Cc1cc(N2CCC(=O)NC2=O)ccc1N1CCC(O)(CC(=O)N2CC3(C2)CN(c2ccc(-c4cc(F)c5c(c4)C(=O)N(C(C(=O)Nc4nccs4)c4ncn6c4CCC6)C5)cc2)C3)CC1 (stereo not shown)" recorded_result="> 150 nM"
compound="O=C1CCC(Nc2cc(F)c(N3CCC(O)(CC(=O)N4CC5(C4)CN(c4ccc(-c6cc(F)c7c(c6)C(=O)N(C(C(=O)Nc6nccs6)c6ncn8c6CCC8)C7)cc4)C5)CC3)c(Cl)c2)C(=O)N1 (single isomer, unassigned; isomer 1)" recorded_result="50 to 150 nM"

# DC50 of Cn1nc(N2CCC(=O)NC2=O)c2cc(F)c(C3CCN(CC(=O)N4CC5(C4)CN(c4ccc(-c6cc(F)c7c(c6)C(=O)N(C(C(=O)Nc6nccs6)c6ncn8c6CCC8)C7)cc4)C5)CC3(F)F)cc21 (single isomer, unassigned; isomer 1) [Compound 129] = < 50 nM

# DC50 of O=C1CC[C@@H](Nc2ccc(N3CCC(O)(CC(=O)N4CCC(NC(=O)c5ccc(C#Cc6cc(F)c7c(c6)C(=O)N(C(C(=O)Nc6nccs6)c6ncn8c6C[C@@H](F)C8)C7)cn5)CC4)CC3)c(F)c2)C(=O)N1 (stereo partly shown) = < 50 nM

====

- target.of.assay: EGFR L858R-T790M (Homo sapiens, UniProt P00533, L858R/T790M)
- Construct: NCI-H1975 (harboring EGFR heterozygous L858R-T790M mutations); host or cells: NCI-H1975
- assay: EGFR degradation, Total EGFR (L858R-specific) HTRF, NCI-H1975
- Type: cell-based
- condition.context: Table 9B; NCI-H1975 cells, 6 hours, Total EGFR HTRF; read-out: H1975 EGFR DC50
measurement.name: DC50

compound="O=C1CCN(c2ccc(N3CCC(O)(CC(=O)N4CC5(CCN(c6ccc(-c7cc(F)c8c(c7)C(=O)N(C(C(=O)Nc7nccs7)c7ncn9c7CCC9)C8)cc6)CC5)C4)CC3)c(F)c2)C(=O)N1 (stereo not drawn)" recorded_result="< 50 nM"
compound="Cn1nc(N2CCC(=O)NC2=O)c2ccc(C3CCN(CC(=O)N4CCC5(C4)CN(c4ccc(-c6cc(F)c7c(c6)C(=O)N(C(C(=O)Nc6nccs6)c6ncn8c6CCC8)C7)cc4)C5)CC3(F)F)cc21 (stereo not drawn)" recorded_result="< 50 nM"
compound="O=C1CC[C@@H](Nc2ccc(N3CCC(O)(CC(=O)N4CC5(C4)CN(c4ccc(-c6cc(F)c7c(c6)C(=O)N(C(C(=O)Nc6nccs6)c6ncn8c6C[C@@H](F)C8)C7)cc4)C5)CC3)c(F)c2)C(=O)N1 (stereo partly drawn)" recorded_result="< 50 nM"
compound="O=C1CC[C@@H](Nc2ccc(C3CCN(CC(=O)N4CCN(c5ccc(-c6cc(F)c7c(c6)C(=O)N(C(C(=O)Nc6nccs6)c6ncn8c6CCC8)C7)cc5)CC4)CC3)cc2)C(=O)N1 (stereo partly drawn)" recorded_result="< 50 nM"
compound="Cn1nc(N2CCC(=O)NC2=O)c2ccc(C3CCN(C(=O)CC4CC5(C4)CN(c4ccc(-c6cc(F)c7c(c6)C(=O)N(C(C(=O)Nc6nccs6)c6ncn8c6CCC8)C7)cc4)C5)CC3(F)F)cc21 (stereo not drawn)" recorded_result="< 50 nM"

# DC50 of O=C1CC[C@H](Nc2ccc(C3CCN(CC(=O)N4CC5(C4)CN(c4ccc(-c6cc(F)c7c(c6)C(=O)N(C(C(=O)Nc6nccs6)c6ncn8c6CCC8)C7)cn4)C5)CC3)c(F)c2)C(=O)N1 (stereo partly drawn) = < 50 nM

# DC50 of O=C1CCN(c2cc(Cl)c(N3CCC(O)(CC(=O)N4CC5(C4)CN(c4ccc(-c6cc(F)c7c(c6)C(=O)N(C(C(=O)Nc6nccs6)c6ncn8c6CCC8)C7)cc4)C5)CC3)c(Cl)c2)C(=O)N1 (stereo not drawn) = < 50 nM

# DC50 of Cn1nc(N2CCC(=O)NC2=O)c2ccc([C@@H]3CCN(C(=O)CN4CCC5(CC4)CN(c4ccc(-c6cc(F)c7c(c6)C(=O)N(C(C(=O)Nc6nccs6)c6ncn8c6CCC8)C7)cc4)C5)CC3(F)F)cc21 (stereo partly drawn) = 50 to 150 nM

# DC50 of O=C1CCC(c2ccc(N3CCC(O)(CC(=O)N4CC5(C4)CN(c4ccc(-c6cc(F)c7c(c6)C(=O)N(C(C(=O)Nc6nccs6)c6ncn8c6CCC8)C7)cc4)C5)CC3)c(F)c2)C(=O)N1 (stereo not drawn) = > 150 nM
